Source listed as patent US20250027068.

# Study Target: pooled human IgG (human IgG1, 2, 3 and 4)
Answer each item with its documented Enzyme Activity Endpoint Assay: IgG.
Report the figure in ng/µL without appending any unit label.

Q) # Enzyme Activity Endpoint Assay: IgG lookup, item PRT-398 (protein) MVTSVWTKGVTPPADFTQGEDVFHAPYVANQGWYDITKTFNGKDDLLCGAATAGNMLHWWFDQNKEYIEAYLKKHPEKQKIMFGDQELLDVRKAINTKGSQKNSELFNYFRDKAFPNLSARRLGVMPDLVLDMFINGYYLNVTKTQTTDVNRTYQEKDKRGGIFDAVFTRGDQSKLLTSRHDFKEKGLKEISDLIKQELTEGKALGLSHTYANVRINHVINLWGADFDSDGNLKAIYVTDSDSNASIGMKKYDVGVNSAGKVAISAKEIKEDNIGAQVLGLFTLSTGQDIWNQTN
A) 0

Q) Next: PRT-437 (protein) MSQTEDSESLQRLRDIEDFQAEKKKQNVVYTKWLDGVDVKDHDFRKIVDGNEAYYATPLLNGRGFYDINKDFNRDSDKCAAAVAANMFHYWLDRNRDNVDRFLRQNPEKHGIIELPDGQLKLSDFLNTYESDDGYRDKSKLFDFISNNFNGPVWTDKLLDNYINGYAYNYKYGRTIEDPTKNTSKINFFKEVFNEKILTNNHSIRNQNEFSVLLSEALYTGKAIGLSYGPAGLRHSLGHIISVWGADLDADGNVVAIYVTDSDDKKLTIGDERVGLKRYKISTDDEGRLRLTAYEETHNTGGQIRGLWTLDTGKQAWADYFDKTEQTGTDQAEQ
A) 0
